Listing of entries alongside the reported kon.
# Target Desc: T1, human programmed cell death protein 1 (hPD-1) C93S (aa 24-167) (Homo sapiens, UniProt Q15116, C93S)
# T1 construct: made as a fusion with a TEV site and human Fc; the Fc was cut off with TEV protease; source: Expi293F, purified (Protein A, TEV cleavage of Fc, SEC; monomer fractions); not shown: Fc (human), C-terminal, cleaved
# T1 sequence (Q15116 24-167 C93S): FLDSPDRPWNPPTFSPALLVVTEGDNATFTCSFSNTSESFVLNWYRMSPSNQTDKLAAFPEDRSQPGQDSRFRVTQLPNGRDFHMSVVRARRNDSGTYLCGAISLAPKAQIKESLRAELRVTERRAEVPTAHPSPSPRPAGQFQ
# Assay Explanation: SPR; Carterra LSA; Fab from the ammonium sulfate precipitate of the culture supernatant immobilised on a NiHC200M chip; hPD-1 (1-1024 nM) or mPD-1-Fc (4-1024 nM) as analyte, fourfold dilution series, no regeneration; HBS-EP pH 7.4, 25 °C; medians over the spots of a construct, KD = koff/kon
# Experimental Conditions: one partner purified
Answer shape: numeric part, then the unit.

{"Binder": "toripalimab Fab L.P100D (Fab, V domains shown, as the heavy chain of Sm3; light chain of Sm3 with this change; numbers count from the chain's first residue; source: Brevibacillus, culture supernatant (ammonium sulfate precipitate); not shown: 6xHis, C-terminal, kept; 6xHN, C-terminal, kept) VH: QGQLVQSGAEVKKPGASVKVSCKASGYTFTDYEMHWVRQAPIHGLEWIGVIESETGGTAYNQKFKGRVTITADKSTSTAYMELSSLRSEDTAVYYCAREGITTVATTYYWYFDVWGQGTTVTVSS VL: DVVMTQSPLSLPVTLGQPASISCRSSQSIVHSNGNTYLEWYLQKPGQSPQLLIYKVSNRFSGVPDRFSGSGSGTDFTLKISRVEAEDVGVYYCFQGSHVDLTFGQGTKLEIK", "kon": "7580 M⁻¹ s⁻¹"}
{"Binder": "toripalimab Fab H.K65A (Fab, V domains shown, heavy chain of Sm3 with this change; numbers count from the chain's first residue; as the light chain of Sm3; source: Brevibacillus, culture supernatant (ammonium sulfate precipitate); not shown: 6xHis, C-terminal, kept; 6xHN, C-terminal, kept) VH: QGQLVQSGAEVKKPGASVKVSCKASGYTFTDYEMHWVRQAPIHGLEWIGVIESETGGTAYNQKFAGRVTITADKSTSTAYMELSSLRSEDTAVYYCAREGITTVATTYYWYFDVWGQGTTVTVSS VL: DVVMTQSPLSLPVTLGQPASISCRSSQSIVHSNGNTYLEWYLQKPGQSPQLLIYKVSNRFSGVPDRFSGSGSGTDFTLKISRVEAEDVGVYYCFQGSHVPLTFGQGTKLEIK", "kon": "6670 M⁻¹ s⁻¹"}

With those in mind, consider the next binder.
**Q:** Which kon value belongs to toripalimab Fab L.T36Y (Fab, V domains shown, as the heavy chain of Sm3; light chain of Sm3 with this change; numbers count from the chain's first residue; source: Brevibacillus, culture supernatant (ammonium sulfate precipitate); not shown: 6xHis, C-terminal, kept; 6xHN, C-terminal, kept) VH: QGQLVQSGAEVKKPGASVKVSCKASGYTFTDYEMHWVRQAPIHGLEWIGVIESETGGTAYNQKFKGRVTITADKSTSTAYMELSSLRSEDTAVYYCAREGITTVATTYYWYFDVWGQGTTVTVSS VL: DVVMTQSPLSLPVTLGQPASISCRSSQSIVHSNGNYYLEWYLQKPGQSPQLLIYKVSNRFSGVPDRFSGSGSGTDFTLKISRVEAEDVGVYYCFQGSHVPLTFGQGTKLEIK ?
**A:** 26900 M⁻¹ s⁻¹
